system: DU-145; test: NCI tumour cell line growth inhibition, 48 h
Activity calls are given as the source filed them. Cut-off read from the data, not from the text of the source: active = GI50 up to about 1.1 µM and inactive = higher. Non-standard residues stand in square brackets, D forms with d. Residues, ends and D or L forms follow the SMILES beside them. ξ: configuration not given here. *: point of attachment. ξHyp = O=C(O)C1CC(O)CN1; Cbz = O=C(OCc1ccccc1)*
Entry note: the call must match one of true (1) for active, false (0) for inactive

These recorded examples may help you get a feel for the data.
1) C1=N\CCOCC/N=C/c2ccccc2OCc2cccc(n2)COc2ccccc2/1	false (0)
2) NC(=O)CNC(=O)C1CC(O)CN1C(=O)OCc1ccccc1 (stereo not drawn) (Cbz-[ξHyp]-Gly-NH2)	false (0)
3) O=c1ccc(=O)n(-c2ccccc2)[nH]1	false (0)

Problem: Can you look up the reported call for COc1cccc2c1C(=O)OC2c1cccc2ccccc12 (stereo not drawn) for me?
Solution: false (0)

Problem: Could you do the same for "Brc1ccc(-c2[nH]c3ccccc3c2/C=N\Nc2ccc(-c3nc4ccccc4[nH]3)cc2)cc1" , please?
Solution: true (1)

Problem: Now this one: CC(NC1=NCCO1)c1cccc([N+](=O)[O-])c1 (stereo not drawn)
Solution: false (0)

Problem: Could you do the same for "N#C/C(=C\Nc1ccccn1)C(=O)c1ccco1" , please?
Solution: false (0)

Problem: Next: "CC(=O)CCCCn1c(=O)c2c(nc(Br)n2C)n(C)c1=O"
Solution: false (0)

Problem: Now consider Cc1ccc(S(=O)(=O)n2c3c(c4ccccc42)CCN2CCC(Br)C[C@@H]32)cc1 (stereo partly drawn) .
Solution: false (0)

Problem: What about this compound? "C1CSCCSCCSCCSCCS1"
Solution: false (0)

Problem: Please give the result for "COc1cc([C@H]2CC(=O)C[C@@H](c3cc(OC)c(OC)c(OC)c3)C23C(=O)c2ccccc2C3=O)cc(OC)c1OC" too.
Solution: false (0)

Problem: And for "[O-][N+](CCO)(CCO)c1ncnc2[nH]cnc12" ?
Solution: false (0)

Problem: What about this compound? "Nc1ccc(S(=O)(=O)NCCS(=O)(=O)O)cc1"
Solution: false (0)
